Molecular target: human sortilin (sSORT) (Homo sapiens, UniProt Q99523)
Sequence (Q99523 78-756 limits assumed): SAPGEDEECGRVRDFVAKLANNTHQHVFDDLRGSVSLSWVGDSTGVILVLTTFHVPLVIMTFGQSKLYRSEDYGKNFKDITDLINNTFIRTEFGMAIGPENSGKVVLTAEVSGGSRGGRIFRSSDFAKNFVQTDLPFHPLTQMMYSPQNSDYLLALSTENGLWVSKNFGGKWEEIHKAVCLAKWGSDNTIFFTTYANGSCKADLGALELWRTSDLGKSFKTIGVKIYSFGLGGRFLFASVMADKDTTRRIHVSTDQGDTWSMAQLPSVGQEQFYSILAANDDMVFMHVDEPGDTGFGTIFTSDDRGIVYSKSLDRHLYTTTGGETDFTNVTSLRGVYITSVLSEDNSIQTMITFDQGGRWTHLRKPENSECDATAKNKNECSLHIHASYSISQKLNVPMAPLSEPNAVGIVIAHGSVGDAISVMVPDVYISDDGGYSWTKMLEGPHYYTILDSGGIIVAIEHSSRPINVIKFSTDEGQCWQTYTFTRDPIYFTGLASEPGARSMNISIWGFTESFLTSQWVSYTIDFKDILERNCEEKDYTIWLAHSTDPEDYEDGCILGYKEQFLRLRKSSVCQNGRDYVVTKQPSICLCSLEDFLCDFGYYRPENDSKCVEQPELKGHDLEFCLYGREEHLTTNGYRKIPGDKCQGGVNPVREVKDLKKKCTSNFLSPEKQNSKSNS
Assay: Neurotensin competitive fluorescence polarization binding assay (FPA)
Details: mean IC50 values for sortilin inhibitors, IC50 (nM), 100 nM sSORT, 10 nM Neurotensin-Ahx-FITC, 1 h room temperature
Quantity Name: IC50 (nM)
Just the number in nM, nothing appended.

CC(C)(C)/C=C/C(NC(=O)C1CN(c2ccncc2)CCN1)C(=O)O (single isomer, unassigned) [SI4 diastereomer 2] ... 912
CC(C)(C)/C=C/C(NC(=O)c1ccc(Oc2ccccc2)nc1)C(=O)O (racemic) [SI5] ... 17

// query What value of measured IC50 is listed for CCn1nc(CC(C)C)cc1C(=O)NC(/C=C/C(C)(C)C)C(=O)O (stereo not shown) ?
// result 95

// query Next up: CC(C)(C)/C=C/C(NC(=O)c1cc(Cl)c(Cl)s1)C(=O)O (stereo not shown)
// result 61

// query Request: CC(C)(C)/C=C/C(NC(=O)c1ccc(Oc2ccccc2)nc1)C(=O)O (single isomer, unassigned) [SI (active enantiomer)]
// result 5

// query What do we get for CC(C)(C)/C=C/C(NC(=O)c1cccc(-n2cnnc2)n1)C(=O)O (stereo not shown) ?
// result 668

// query Consider next the molecule Cn1cc(Cl)cc1C(=O)NC(/C=C/C(C)(C)C)C(=O)O (stereo not shown) in the same way.
// result 71

// query Same lookup for Cc1nc(N(C)C)ncc1C(=O)NC(/C=C/C(C)(C)C)C(=O)O (racemic) [SI1] , please.
// result 59

// query Item: CC(C)(C)/C=C/C(NC(=O)c1cccc(-n2cncn2)c1)C(=O)O (stereo not shown)
// result 52

// query Note, next up: CN(C)c1ncc(C(=O)NC(/C=C/C(C)(C)C)C(=O)O)cn1 (stereo not shown)
// result 149

// query // same read-out, input: CC(C)(C)/C=C/C(NC(=O)c1ccc(-c2cccs2)cc1)C(=O)O (stereo not shown)
// result 80

// query Can you handle CC(C)(C)/C=C/C(NC(=O)c1ccc(C(=O)C(F)(F)F)cc1)C(=O)O (stereo not shown) next?
// result 234

// query Next record, please: CC(C)(C)/C=C/C(NC(=O)C1CN(c2ccccn2)CCN1)C(=O)O (single isomer, unassigned) [SI3 diastereomer 1]
// result 135

// query Please do the same for Cc1cc2[nH]c(C(=O)NC(/C=C/C(C)(C)C)C(=O)O)cc2cn1 (stereo not shown) as well.
// result 89

// query Entry CC(C)(C)/C=C/C(NC(=O)c1cnc(Oc2ccccc2)nc1)C(=O)O (stereo not shown) please
// result 158

// query Please do the same for CC(C)(C)CC[C@H](NC(=O)c1ccc(Oc2ccccc2)nc1)C(=O)O [RC2 (active enantiomer), reference compound] as well.
// result 28
